Recorded values, source ChEMBL document CHEMBL2321654.

Exercise: for every item that follows, state its recorded IC50.
target: Epidermal growth factor receptor (Homo sapiens); assay: Inhibition of recombinant EGFR cytoplasmic domain (645 to 1186) (unknown origin) autophosphorylation after 1 hr
Sequence (P00533 whole entry, the tested form may be a part): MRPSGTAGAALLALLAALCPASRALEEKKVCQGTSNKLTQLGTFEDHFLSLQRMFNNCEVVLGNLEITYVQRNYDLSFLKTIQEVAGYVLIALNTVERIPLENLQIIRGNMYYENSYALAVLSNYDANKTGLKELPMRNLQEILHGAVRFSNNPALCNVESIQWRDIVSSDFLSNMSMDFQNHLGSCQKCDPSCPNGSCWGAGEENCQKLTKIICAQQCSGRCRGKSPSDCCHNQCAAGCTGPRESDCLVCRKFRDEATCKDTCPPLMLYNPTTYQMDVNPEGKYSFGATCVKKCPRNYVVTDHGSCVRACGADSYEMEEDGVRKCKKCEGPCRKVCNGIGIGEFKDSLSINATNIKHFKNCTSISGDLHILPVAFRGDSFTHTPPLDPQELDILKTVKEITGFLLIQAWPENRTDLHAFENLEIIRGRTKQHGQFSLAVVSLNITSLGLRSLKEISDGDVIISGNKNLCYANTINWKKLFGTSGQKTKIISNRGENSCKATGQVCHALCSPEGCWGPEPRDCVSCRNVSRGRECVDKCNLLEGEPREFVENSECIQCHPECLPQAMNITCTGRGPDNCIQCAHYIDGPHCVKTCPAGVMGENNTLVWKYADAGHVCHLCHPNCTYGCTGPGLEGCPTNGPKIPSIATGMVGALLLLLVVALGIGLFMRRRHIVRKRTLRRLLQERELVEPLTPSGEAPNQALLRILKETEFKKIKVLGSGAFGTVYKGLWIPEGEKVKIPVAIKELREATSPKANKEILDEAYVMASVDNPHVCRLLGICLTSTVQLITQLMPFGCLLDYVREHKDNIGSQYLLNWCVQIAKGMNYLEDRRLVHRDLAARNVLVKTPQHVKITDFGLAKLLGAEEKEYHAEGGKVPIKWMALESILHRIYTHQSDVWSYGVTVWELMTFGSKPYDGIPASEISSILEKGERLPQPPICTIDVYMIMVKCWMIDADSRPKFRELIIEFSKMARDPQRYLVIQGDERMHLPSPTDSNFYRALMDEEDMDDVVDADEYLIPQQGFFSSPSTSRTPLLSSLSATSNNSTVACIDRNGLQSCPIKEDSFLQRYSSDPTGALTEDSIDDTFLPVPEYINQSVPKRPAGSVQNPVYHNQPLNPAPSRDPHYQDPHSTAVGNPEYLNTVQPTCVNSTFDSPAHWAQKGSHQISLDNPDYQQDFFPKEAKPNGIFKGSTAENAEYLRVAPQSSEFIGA
Numbers only, in nM.

Worked examples follow.
# compound, IC50, nM
records = [
    ("Brc1ccc(C2=NN(c3ccccc3)C(c3ccc4ccccc4c3)C2)cc1 (configuration not stated)", 710),
    ("Cc1ccc(C2=NN(C(N)=S)C(c3ccc4ccccc4c3)C2)cc1 (configuration not stated)", 520),
    ("Brc1ccc(C2=NN(c3ccccc3)C(c3cccc4ccccc34)C2)cc1 (configuration not stated)", 490),
    ("NC(=S)N1N=C(c2ccccc2)CC1c1ccc2ccccc2c1 (configuration not stated)", 3010),
]

For the 8 compounds below, give their IC50 values.
1. Cc1ccc(C2=NN(C(N)=S)C(c3cccc4ccccc34)C2)cc1 (configuration not stated)
2. COc1ccc(C2=NN(C(N)=S)C(c3cccc4ccccc34)C2)cc1 (configuration not stated)
3. NC(=S)N1N=C(c2ccc(Br)cc2)CC1c1cccc2ccccc12 (configuration not stated)
4. Fc1ccc(C2=NN(c3ccccc3)C(c3ccc4ccccc4c3)C2)cc1 (configuration not stated)
5. NC(=S)N1N=C(c2ccccc2)CC1c1cccc2ccccc12 (configuration not stated)
6. c1ccc(C2=NN(c3ccccc3)C(c3ccc4ccccc4c3)C2)cc1 (configuration not stated)
7. Cc1ccc(C2=NN(c3ccccc3)C(c3ccc4ccccc4c3)C2)cc1 (configuration not stated)
8. Cc1ccc(C2=NN(c3ccccc3)C(c3cccc4ccccc34)C2)cc1 (configuration not stated)

Ans:
1. 2060
2. 160
3. 5680
4. 300
5. 2230
6. 240
7. 60
8. 200

For the 5 compounds below, give their IC50 values.
1. COc1ccc(C2=NN(c3ccccc3)C(c3cccc4ccccc34)C2)cc1 (configuration not stated)
2. Clc1ccc(C2=NN(c3ccccc3)C(c3cccc4ccccc34)C2)cc1 (configuration not stated)
3. Clc1ccc(C2=NN(c3ccccc3)C(c3ccc4ccccc4c3)C2)cc1Cl (configuration not stated)
4. NC(=S)N1N=C(c2ccc(Cl)c(Cl)c2)CC1c1ccc2ccccc2c1 (configuration not stated)
5. Clc1ccc(C2=NN(c3ccccc3)C(c3cccc4ccccc34)C2)cc1Cl (configuration not stated)

Ans:
100
680
50
660
140

For the 5 compounds below, give their IC50 values.
1. NC(=S)N1N=C(c2ccc(Cl)c(Cl)c2)CC1c1cccc2ccccc12 (configuration not stated)
2. NC(=S)N1N=C(c2ccc(Br)cc2)CC1c1ccc2ccccc2c1 (configuration not stated)
3. NC(=S)N1N=C(c2ccc(F)cc2)CC1c1ccc2ccccc2c1 (configuration not stated)
4. Clc1ccc(C2=NN(c3ccccc3)C(c3ccc4ccccc4c3)C2)cc1 (configuration not stated)
5. Fc1ccc(C2=NN(c3ccccc3)C(c3cccc4ccccc34)C2)cc1 (configuration not stated)

Ans:
[210, 350, 3280, 110, 1070]
